Stated conditions: in 2-methoxyethanol, 298.15 K
Assay endpoint: solubility (mole fraction)
Respond using a number only.

Report solubility (mole fraction), nothing else, for this molecule: CC(=O)N1CCN(c2ccc(O)cc2)CC1
0.0114

###

Stated conditions: in n-butanol, 308.15 K
Assay endpoint: solubility (mole fraction)
Lab note: jot down the number only; don't add units.

Please supply the value of reported solubility (mole fraction) for the item CC(=O)N1CCN(c2ccc(O)cc2)CC1
0.00392

###

Stated conditions: in ethylene glycol, 318.15 K
Assay endpoint: solubility (mole fraction)
Form: value (number only, do not type unit).

Read the entry CC(=O)N1CCN(c2ccc(O)cc2)CC1 and write its reported solubility (mole fraction).
0.00405

###

Stated conditions: in ethanol, 313.15 K
Assay endpoint: solubility (mole fraction)

Please indicate solubility (mole fraction) recorded for CC(=O)N1CCN(c2ccc(O)cc2)CC1
0.00634

###

Stated conditions: in n-propanol, 308.15 K
Assay endpoint: solubility (mole fraction)

Name the recorded solubility (mole fraction) of the item CC(=O)N1CCN(c2ccc(O)cc2)CC1 in your answer.
0.00459

###

Stated conditions: in n-butanol, 318.15 K
Assay endpoint: solubility (mole fraction)
Just the number, please.

Give solubility (mole fraction) for CC(=O)N1CCN(c2ccc(O)cc2)CC1
0.00612

###

Stated conditions: in isopropanol, 288.15 K
Assay endpoint: solubility (mole fraction)
Keep the answer to the number alone.

Answer with the recorded solubility (mole fraction) for the compound listed here: CC(=O)N1CCN(c2ccc(O)cc2)CC1
0.00165

###

Stated conditions: in acetonitrile, 313.15 K
Assay endpoint: solubility (mole fraction)
Please give the numeric answer without any surrounding text.

Name the recorded solubility (mole fraction) of the compound listed here: CC(=O)N1CCN(c2ccc(O)cc2)CC1
0.00304

###

Stated conditions: in 2-methoxyethanol, 318.15 K
Assay endpoint: solubility (mole fraction)
A bare number is all that is needed in reply.

Please give measured solubility (mole fraction) of the following entry: CC(=O)N1CCN(c2ccc(O)cc2)CC1
0.0212

###

Stated conditions: in ethylene glycol, 288.15 K
Assay endpoint: solubility (mole fraction)
Please reply with the value in numeric form only.

Return reported solubility (mole fraction). Input compound: CC(=O)N1CCN(c2ccc(O)cc2)CC1
0.000658

###

Stated conditions: in n-propanol, 293.15 K
Assay endpoint: solubility (mole fraction)

Give recorded solubility (mole fraction). CC(=O)N1CCN(c2ccc(O)cc2)CC1
0.00238

###

Stated conditions: in isobutanol, 318.15 K
Assay endpoint: solubility (mole fraction)
Answer with the value's number alone.

Tell me measured solubility (mole fraction) for CC(=O)N1CCN(c2ccc(O)cc2)CC1 please.
0.00415

###

Stated conditions: in methanol, 293.15 K
Assay endpoint: solubility (mole fraction)
The reply should be a number, written without any unit.

Name the recorded solubility (mole fraction) of the molecule listed here: CC(=O)N1CCN(c2ccc(O)cc2)CC1
0.00411

Entry source: BigSolDB 2.1
